src = ChEMBL document CHEMBL1157544

system: Leishmania pifanoi; assay: Antileishmanial activity against Leishmania pifanoi MHOM/VE/60/Ltrod after 96 hrs by MTT assay; type: functional
measurement_label: LC50 (nM)
Report the figure in nM without appending any unit label.

O=C(c1ccc(C[P+](C2CCCCC2)(C2CCCCC2)C2CCCCC2)cc1)c1ccc(C[P+](C2CCCCC2)(C2CCCCC2)C2CCCCC2)cc1.[Br-].[Br-] : 1670

Next molecule, please.
Give LC50 for the following molecule: `O=C(c1ccc(C[P+](c2ccccc2)(c2ccccc2)c2ccccc2)cc1)c1ccc(C[P+](c2ccccc2)(c2ccccc2)c2ccccc2)cc1.[Br-].[Br-]`
1530

====

test system: Leishmania pifanoi; test: Antileishmanial activity against Leishmania pifanoi MHOM/VE/60/Ltrod after 96 hrs by MTT assay; format: functional
measurement_label: log10 of LC50 (log10 of the value in µM)
Each number you see is log10 of LC50, and the unit inside the log is µM.

O=C(c1ccc(C[P+](c2ccccc2)(C2CCCCC2)C2CCCCC2)cc1)c1ccc(C[P+](c2ccccc2)(C2CCCCC2)C2CCCCC2)cc1.[Br-].[Br-] : 0.16

Give log10 of LC50 for the following compound: `CC[P+](Cc1ccc(C(=O)c2ccc(C[P+](CC)(c3ccccc3)c3ccccc3)cc2)cc1)(c1ccccc1)c1ccccc1.[Br-].[Br-]`
1.15

Give log10 of LC50 for the following compound: `CCCCC[P+](CCCCC)(CCCCC)Cc1ccc(C(=O)c2ccc(C[P+](CCCCC)(CCCCC)CCCCC)cc2)cc1.[Br-].[Br-]`
-0.01

Give log10 of LC50 for the following compound: `C[P+](Cc1ccc(C(=O)c2ccc(C[P+](C)(c3ccccc3)c3ccccc3)cc2)cc1)(c1ccccc1)c1ccccc1.[Br-].[Br-]`
0.21

Give log10 of LC50 for the following compound: `Cc1ccc([P+](Cc2ccc(C(=O)c3ccc(C[P+](c4ccccc4)(c4ccccc4)c4ccc(C)cc4)cc3)cc2)(c2ccccc2)c2ccccc2)cc1.[Br-].[Br-]`
0.14
